# Tested on: Escherichia coli TOP10;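 further: peptides expressed intracellularly from a pBAD plasmid library in pooled LB shake-flask culture, induced with 0.3% L-arabinose, DNA abundance read by NGS, three biological replicates, DESeq2 with apeglm shrinkage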
# test.summary: shrunken log2 fold change of peptide-encoding DNA abundance (4.5 h post-induction vs induction); higher = less antimicrobial activity (less host growth inhibition)
# experimental.parameters: time post-induction: 4.5 h; library: site-saturation at positions 5, 18, 19, 20
Assign criterion met to entries whose shrunken log2 fold change meets or exceeds -0.05; assign criterion not met to the rest.

Could you tell me if the measured shrunken log2 fold change of `RRIRLRPPRLPRPRPRPCMAPRP` reaches -0.05 or more?
criterion not met

Could you tell me if the measured shrunken log2 fold change of `RRIRNRPPRLPRPRPRPLKAPRP` reaches -0.05 or more?
criterion met

Could you tell me if the measured shrunken log2 fold change of `RRIRHRPPRLPRPRPRPRGRPRP` reaches -0.05 or more?
criterion not met

Could you tell me if the measured shrunken log2 fold change of `RRIRIRPPRLPRPRPRPCRGPRP` reaches -0.05 or more?
criterion met

Could you tell me if the measured shrunken log2 fold change of `RRIRPRPPRLPRPRPRPGKKPRP` reaches -0.05 or more?
criterion met

Could you tell me if the measured shrunken log2 fold change of `RRIRNRPPRLPRPRPRPGVPPRP` reaches -0.05 or more?
criterion met

Could you tell me if the measured shrunken log2 fold change of `RRIRRRPPRLPRPRPRPQPPPRP` reaches -0.05 or more?
criterion met

Could you tell me if the measured shrunken log2 fold change of `RRIRNRPPRLPRPRPRPDSFPRP` reaches -0.05 or more?
criterion met
